- system_name: MOZ-KAT6A (Homo sapiens, UniProt Q92794, A567V)
- Sequence (Q92794 with tags, fused parts or gaps A567V): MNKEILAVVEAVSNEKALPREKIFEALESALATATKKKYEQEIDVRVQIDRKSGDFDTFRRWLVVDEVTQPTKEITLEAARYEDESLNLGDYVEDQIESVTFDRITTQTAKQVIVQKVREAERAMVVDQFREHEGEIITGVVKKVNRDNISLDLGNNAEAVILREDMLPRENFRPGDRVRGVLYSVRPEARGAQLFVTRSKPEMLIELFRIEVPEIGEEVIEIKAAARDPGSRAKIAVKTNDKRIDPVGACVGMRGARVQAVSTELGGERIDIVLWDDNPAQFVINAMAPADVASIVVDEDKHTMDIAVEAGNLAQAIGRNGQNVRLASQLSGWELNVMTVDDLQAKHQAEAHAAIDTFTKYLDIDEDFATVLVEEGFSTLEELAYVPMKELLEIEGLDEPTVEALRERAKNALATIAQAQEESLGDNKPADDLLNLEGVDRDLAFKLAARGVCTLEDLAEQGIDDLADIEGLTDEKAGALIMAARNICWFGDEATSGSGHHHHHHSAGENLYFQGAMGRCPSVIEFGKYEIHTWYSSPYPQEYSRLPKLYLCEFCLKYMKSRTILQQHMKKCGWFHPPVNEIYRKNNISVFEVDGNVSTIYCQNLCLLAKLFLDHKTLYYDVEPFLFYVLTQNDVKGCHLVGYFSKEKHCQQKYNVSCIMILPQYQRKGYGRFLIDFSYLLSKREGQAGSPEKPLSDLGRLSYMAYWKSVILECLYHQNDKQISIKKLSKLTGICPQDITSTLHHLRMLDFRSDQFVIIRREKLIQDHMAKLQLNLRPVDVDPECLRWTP
- test_name: Acetyltransferase biochemical assay (AlphaScreen), KAT6A
Grouping key: IC50. Bins: c1: < 3 µM; c2: ≥ 3 µM and < 30 µM; c3: ≥ 30 µM

[[record]]
smiles_text = "Cc1c(Cl)cccc1S(=O)(=O)Nc1noc2ccccc12"
system_name = "MOZ-KAT6A (Homo sapiens, UniProt Q92794, A567V)"
group = "c3"


[Q] Quick check: band for `COc1ccccc1S(=O)(=O)Nc1noc2cc(Cl)ccc12`
[A] c3

[Q] Class for `COc1ccc2cccnc2c1S(=O)(=O)Nc1noc2cccc(OC)c12` ?
[A] c2

[Q] Please classify: `CCc1ccc(OC)c(S(=O)(=O)Nc2noc3cc(-c4ncccn4)ccc23)c1`
[A] c2

[Q] Hi, small favor: classify `Cc1ccc(-c2ccno2)cc1S(=O)(=O)Nc1noc2cccc(Cl)c12` by its IC50 when you get a moment.
[A] c3

====

# HBO-KAT7 (Homo sapiens, UniProt O95251): IC50 values follow
# Sequence (O95251 with tags, fused parts or gaps): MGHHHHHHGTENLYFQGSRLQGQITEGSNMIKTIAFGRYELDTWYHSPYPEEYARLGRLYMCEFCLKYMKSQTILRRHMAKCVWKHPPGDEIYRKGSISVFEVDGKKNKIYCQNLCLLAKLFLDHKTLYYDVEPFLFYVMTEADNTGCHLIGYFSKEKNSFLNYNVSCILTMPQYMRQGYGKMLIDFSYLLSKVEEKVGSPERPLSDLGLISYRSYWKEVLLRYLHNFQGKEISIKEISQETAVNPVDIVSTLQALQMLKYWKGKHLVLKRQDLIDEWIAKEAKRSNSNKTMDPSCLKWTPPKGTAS
Structures can show the parent of a compound that is named as a salt.
Please respond with the number in nM and leave the unit unwritten.

[[record]]
molecule = "COC(=O)c1ccc(Cl)cc1S(=O)(=O)Nc1noc2cccc(Cl)c12"
readout_unit = "nM"
reported_result = 95500

[[record]]
molecule = "CCc1ccc(OC)c(S(=O)(=O)Nc2noc3ccc(CN)cc23)c1 [Example 226, trifluoroacetate]"
readout_unit = "nM"
reported_result = 38000

[[record]]
molecule = "COc1ccc(S(=O)(=O)Nc2noc3cccc(OC)c23)c(OC)c1"
readout_unit = "nM"
reported_result = 937

[[record]]
molecule = "COCc1cc(OC)c2c(NS(=O)(=O)c3c(OC)cccc3OC)noc2c1"
readout_unit = "nM"
reported_result = 169


[Q] Quick one: IC50 of `COc1cc(CNC(C)=O)cc(OC)c1S(=O)(=O)Nc1noc2cccc(OC)c12` ?
[A] 917

====

- Test system: acetylation of the histone H3K23 marker in U2OS cells
- test_name: Histone H3 Lysine 23 Acetylation Biomarker Assay
- Type: cell-based
- condition: Homo sapiens, 24 hours incubation, read-out: IC50, inhibition of histone H3K23 acetylation
- Procedure: Compounds were tested for their ability to inhibit acetylation of the histone H3K23 marker in the following assay: The cell line U2OS was seeded at a density of 9,000 cells per well in 96 well optical quality tissue culture plates in RPMI medium and 10% foetal bovine serum, and allowed to adhere for 24 hours under standard culture conditions (37 degree Celsius, 5% CO2). […] Plates were washed as previously and read on a PerkinElmer Phenix high content imaging platform. […]
With a cut-off of 200 nM, any IC50 strictly below it is called class 1; any IC50 meeting it or above is called class 0.

Sample answers from the record:
[[record]]
smiles_text = "COc1cccc(OC)c1S(=O)(=O)Nc1noc2cc(-c3cccc(O)c3)cc(OC)c12"
group = "class 1"

[[record]]
smiles_text = "COc1ccc(-c2ccccc2)c(OC)c1S(=O)(=O)Nc1noc2cccc(OC)c12"
group = "class 0"

[[record]]
smiles_text = "COCc1cc(OC)c2c(NS(=O)(=O)c3ccc(OC)c4cccnc34)noc2c1"
group = "class 1"

[[record]]
smiles_text = "CCOCc1cc(OC)c2c(NS(=O)(=O)c3c(OC)cccc3OC)noc2c1"
group = "class 1"

[[record]]
smiles_text = "COc1cccc2onc(NS(=O)(=O)c3cccc4cc(C)cnc34)c12"
group = "class 0"

[[record]]
smiles_text = "COc1cccc(-c2cc(OC)c3c(NS(=O)(=O)c4c(OC)cccc4OC)noc3c2)c1"
group = "class 0"

[[record]]
smiles_text = "COCc1cc2onc(NS(=O)(=O)c3c(OC)cccc3OC)c2c(OC)c1Cl"
group = "class 1"

[[record]]
smiles_text = "COc1cccc(OC)c1S(=O)(=O)Nc1noc2cc(-c3ncco3)cc(OC)c12"
group = "class 1"

[[record]]
smiles_text = "COCc1cc(OC)c2c(NS(=O)(=O)c3c(OC)cccc3OC)noc2c1"
group = "class 1"

[[record]]
smiles_text = "COc1cccc(OC)c1S(=O)(=O)Nc1noc2cc(-c3ccccc3)cc(OC)c12"
group = "class 1"


[Q] Is 200 nM strictly greater than the compound's reported IC50? compound: `COc1cncc(-c2cc(OC)c3c(NS(=O)(=O)c4c(OC)cccc4OC)noc3c2)c1`
[A] class 0

[Q] Please determine if `COc1cccc(OC)c1S(=O)(=O)Nc1noc2cc(-c3ccccn3)cc(OC)c12` is below 200 nM in terms of IC50.
[A] class 1

[Q] Report whether reported IC50 is lower than 200 nM (strictly) for `CCc1ccc(OC)c(S(=O)(=O)Nc2noc3c(-c4ccccc4)cccc23)c1`
[A] class 0

[Q] is_below(IC50, 200 nM) for `COc1cccc(OC)c1S(=O)(=O)Nc1noc2cc(OC(F)F)cc(OC)c12` ?
[A] class 0

[Q] Find out if reported IC50 for `COCc1cc2onc(NS(=O)(=O)c3c(OC)cccc3OC)c2cc1C` is less than 200 nM
[A] class 1

[Q] Confirm or reject: IC50 of `CCc1ccc(OC)c(S(=O)(=O)Nc2noc3c(-c4cnn(C)c4)cccc23)c1` lies strictly below 200 nM
[A] class 0

[Q] IC50 under 200 nM? Item: `COc1cccc(OC)c1S(=O)(=O)Nc1noc2cc(-c3ncco3)ccc12`
[A] class 0

[Q] Would you kindly verify if IC50 of `COc1cccc(OC)c1S(=O)(=O)Nc1noc2cccc(OC)c12` is strictly less than 200 nM?
[A] class 0

[Q] Field: below-cutoff. Rule: recorded IC50 strictly less than 200 nM. Subject: `COc1ccccc1-c1cc(OC)c2c(NS(=O)(=O)c3c(OC)cccc3OC)noc2c1`
[A] class 0

[Q] Please indicate whether the reported IC50 of `COc1ccccc1S(=O)(=O)Nc1noc2cccc(Cl)c12` is strictly below 200 nM.
[A] class 0
